# target-or-test-system: Histone deacetylase 4 (Homo sapiens)
# Sequence (P56524 whole entry): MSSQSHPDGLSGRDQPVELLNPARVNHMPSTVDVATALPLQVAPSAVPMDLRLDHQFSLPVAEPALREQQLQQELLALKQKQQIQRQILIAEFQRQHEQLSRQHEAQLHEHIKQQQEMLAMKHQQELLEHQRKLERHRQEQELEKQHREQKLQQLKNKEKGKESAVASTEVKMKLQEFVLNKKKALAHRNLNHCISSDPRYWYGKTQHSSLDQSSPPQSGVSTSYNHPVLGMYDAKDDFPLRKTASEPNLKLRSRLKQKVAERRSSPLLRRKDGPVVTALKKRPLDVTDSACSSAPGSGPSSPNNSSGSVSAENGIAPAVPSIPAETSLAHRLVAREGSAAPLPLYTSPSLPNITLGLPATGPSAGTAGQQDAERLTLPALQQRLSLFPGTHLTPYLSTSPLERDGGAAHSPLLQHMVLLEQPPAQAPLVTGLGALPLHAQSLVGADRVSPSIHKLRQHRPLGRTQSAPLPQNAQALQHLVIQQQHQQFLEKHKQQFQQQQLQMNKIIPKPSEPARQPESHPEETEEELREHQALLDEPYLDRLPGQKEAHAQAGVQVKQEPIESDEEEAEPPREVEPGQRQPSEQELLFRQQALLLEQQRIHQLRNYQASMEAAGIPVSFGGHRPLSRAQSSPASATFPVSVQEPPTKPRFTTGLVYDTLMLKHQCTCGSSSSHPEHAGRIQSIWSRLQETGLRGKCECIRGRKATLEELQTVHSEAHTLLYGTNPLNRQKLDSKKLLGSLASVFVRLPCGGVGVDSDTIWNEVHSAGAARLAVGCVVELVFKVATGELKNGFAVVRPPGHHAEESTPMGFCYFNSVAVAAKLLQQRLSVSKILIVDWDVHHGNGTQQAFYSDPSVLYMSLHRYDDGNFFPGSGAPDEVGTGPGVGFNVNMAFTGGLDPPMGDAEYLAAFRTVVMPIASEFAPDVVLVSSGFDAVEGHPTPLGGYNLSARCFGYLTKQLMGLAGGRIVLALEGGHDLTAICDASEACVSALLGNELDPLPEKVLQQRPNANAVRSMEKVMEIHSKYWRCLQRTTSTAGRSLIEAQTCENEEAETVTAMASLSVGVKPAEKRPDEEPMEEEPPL
# assay-comment: Inhibition of recombinant human HDAC4 expressed in HEK293T cells using Ac-KGLGK(Ac)-MCA as substrate measured after 30 mins by fluorescence assay
metric-name: IC50 (µM)
Numeric answer only, unit µM assumed.

Per the record, CC1CCCC2(C1)NC(=O)[C@H](CCCCCC(=O)NO)NC(=O)[C@H]1CCCN1C(=O)[C@H](Cc1ccccc1)NC2=O (some centres undefined) has IC50 of 0.014

Per the record, `O=C1N[C@@H]2CCCCCCCCCCC[C@H](NC2=O)C(=O)N2CCC[C@@H]2C(=O)N[C@H]1CCCCCB(O)O` has IC50 of 9.4

Per the record, `COCC(=O)CCCCC[C@@H]1NC(=O)[C@H]2CCCN2C(=O)[C@@H]2CCCCCCCCCCC[C@@H](NC1=O)C(=O)N2` has IC50 of 0.026

Per the record, CC1CCCCC12NC(=O)[C@H](CCCCCC(=O)NO)NC(=O)[C@H]1CCCN1C(=O)[C@H](Cc1ccccc1)NC2=O (some centres undefined) has IC50 of 0.006

----------
# target-or-test-system: Protein deacetylase HDAC6 (Homo sapiens)
# Sequence (Q9UBN7 whole entry): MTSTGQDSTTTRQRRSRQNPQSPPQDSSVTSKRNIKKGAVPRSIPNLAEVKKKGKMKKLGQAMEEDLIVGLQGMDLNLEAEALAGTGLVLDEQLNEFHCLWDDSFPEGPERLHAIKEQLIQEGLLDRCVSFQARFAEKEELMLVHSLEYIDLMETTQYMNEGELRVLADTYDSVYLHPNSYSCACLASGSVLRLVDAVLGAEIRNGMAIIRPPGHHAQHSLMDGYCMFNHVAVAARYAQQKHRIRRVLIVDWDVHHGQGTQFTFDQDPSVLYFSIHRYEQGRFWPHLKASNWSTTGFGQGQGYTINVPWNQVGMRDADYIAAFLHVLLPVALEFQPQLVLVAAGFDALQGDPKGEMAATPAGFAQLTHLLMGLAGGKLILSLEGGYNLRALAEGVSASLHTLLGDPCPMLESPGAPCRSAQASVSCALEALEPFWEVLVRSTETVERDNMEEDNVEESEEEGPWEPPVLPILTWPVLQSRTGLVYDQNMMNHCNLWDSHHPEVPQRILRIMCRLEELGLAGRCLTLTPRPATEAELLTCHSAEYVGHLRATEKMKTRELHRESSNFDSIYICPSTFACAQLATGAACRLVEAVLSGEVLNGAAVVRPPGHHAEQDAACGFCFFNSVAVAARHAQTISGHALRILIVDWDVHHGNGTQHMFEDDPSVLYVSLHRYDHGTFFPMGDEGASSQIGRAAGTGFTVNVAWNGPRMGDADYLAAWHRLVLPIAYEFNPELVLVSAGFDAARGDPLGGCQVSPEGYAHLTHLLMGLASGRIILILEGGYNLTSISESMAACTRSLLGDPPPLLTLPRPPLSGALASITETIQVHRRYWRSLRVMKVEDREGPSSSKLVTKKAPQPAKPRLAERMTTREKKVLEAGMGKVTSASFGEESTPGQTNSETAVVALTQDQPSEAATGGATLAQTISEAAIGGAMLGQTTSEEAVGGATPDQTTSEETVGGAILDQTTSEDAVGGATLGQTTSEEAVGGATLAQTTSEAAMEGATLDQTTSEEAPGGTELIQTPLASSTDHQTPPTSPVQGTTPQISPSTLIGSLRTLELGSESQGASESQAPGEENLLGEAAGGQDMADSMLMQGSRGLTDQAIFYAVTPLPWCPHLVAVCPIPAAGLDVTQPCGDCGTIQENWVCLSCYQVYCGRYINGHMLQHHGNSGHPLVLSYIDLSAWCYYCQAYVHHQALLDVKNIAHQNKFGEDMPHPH
# assay-comment: Inhibition of HDAC6 in human HeLa nuclear extract using Boc-Lys(acetyl)-AMC as substrate measured after 30 mins by fluorescence assay
# Type: cell-free
metric-name: pIC50
pIC50 is defined as minus the log10 of a concentration measured in mol/L.

Per the record, `O=C(/C=C/c1ccc(C(=O)NCCCOc2no[n+]([O-])c2S(=O)(=O)c2ccccc2)cc1)NO` has pIC50 of 6.64

Per the record, `CNCCOc1no[n+]([O-])c1S(=O)(=O)c1ccccc1` has pIC50 of 6.80

Per the record, CC(CNC(=O)c1ccc(/C=C/C(=O)NO)cc1)Oc1no[n+]([O-])c1S(=O)(=O)c1ccccc1 (centres undefined) has pIC50 of 6.55

Per the record, `O=C(/C=C/c1ccc(C(=O)NCCOc2no[n+]([O-])c2S(=O)(=O)c2ccccc2)cc1)NO` has pIC50 of 6.82

----------
# target-or-test-system: Histone deacetylase 3/Nuclear receptor corepressor 2 (HDAC3/NCoR2) (Homo sapiens)
# Assay type: protein-complex assay
Exercise: state measured IC50 for each of the compounds provided.
Numeric answer only, unit nM assumed.

Per the record, `O=C(/C=C/c1cccn(CCCc2ccc3ccccc3c2)c1=O)NO` has IC50 of 331

Per the record, `O=C(/C=C/c1cccn(CCc2ccc3ccccc3c2)c1=O)NO` has IC50 of 69.9

----------
Exercise: state measured IC50 for each of the compounds provided.
# target-or-test-system: Histone deacetylase 8 (Homo sapiens, UniProt Q9BY41)
# Sequence (Q9BY41 whole entry): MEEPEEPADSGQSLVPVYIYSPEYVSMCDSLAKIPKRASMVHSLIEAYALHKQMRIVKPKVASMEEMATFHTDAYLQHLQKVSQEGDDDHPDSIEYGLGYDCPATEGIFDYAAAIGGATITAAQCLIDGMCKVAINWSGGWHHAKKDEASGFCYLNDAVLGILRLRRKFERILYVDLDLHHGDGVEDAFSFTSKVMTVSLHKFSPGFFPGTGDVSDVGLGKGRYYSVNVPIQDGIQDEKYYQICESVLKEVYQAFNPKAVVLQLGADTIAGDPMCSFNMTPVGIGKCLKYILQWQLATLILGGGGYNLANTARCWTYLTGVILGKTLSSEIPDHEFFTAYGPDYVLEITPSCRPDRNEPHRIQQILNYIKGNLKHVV
# assay-comment: Inhibition of HDAC8 in human HeLa nuclear extract using Boc-Lys(acetyl)-AMC as substrate measured after 30 mins by fluorescence assay
# Type: cell-free
Numeric answer only, unit nM assumed.

Per the record, `CNCCOc1no[n+]([O-])c1S(=O)(=O)c1ccccc1` has IC50 of 260

Per the record, CC(CNC(=O)c1ccc(/C=C/C(=O)NO)cc1)Oc1no[n+]([O-])c1S(=O)(=O)c1ccccc1 (centres undefined) has IC50 of 420

Per the record, `O=C(/C=C/c1ccc(C(=O)NCCCOc2no[n+]([O-])c2S(=O)(=O)c2ccccc2)cc1)NO` has IC50 of 460

Per the record, `O=C(/C=C/c1ccc(C(=O)NCCOc2no[n+]([O-])c2S(=O)(=O)c2ccccc2)cc1)NO` has IC50 of 290
